- System: Saccharomyces bayanus
- Test protocol: Inhibition of yeast alpha-glucosidase at 2 mM incubated for 10 to 30 mins using p-nitrophenyl alpha-D-glycopyranoside substrate by spectrophotometry
The source made the active and inactive calls. The calls are words filed in the database; no cut-off is given here.
Observable: inhibition

Worked examples, 4 compounds total:
Chem smiles | Test target | inhibition
OCCCCCCCCCCCCCCCCSC1=N[C@H]2O[C@H](CO)[C@H](O)[C@H](O)[C@H]2O1 | Saccharomyces bayanus | inactive
OC[C@H]1O[C@@H]2N=C(SCCCCCCCCCCCCCCCCSC3=N[C@H]4O[C@H](CO)[C@@H](O)[C@H](O)[C@H]4O3)O[C@@H]2[C@@H](O)[C@@H]1O | Saccharomyces bayanus | inactive
O=C(O)CCCCCCCCCCCCCCCSC1=N[C@H]2O[C@H](CO)[C@@H](O)[C@H](O)[C@H]2O1 | Saccharomyces bayanus | inactive
OC[C@H]1O[C@@H]2N=C(SCCCCCCCCCCCCCCCCF)O[C@@H]2[C@@H](O)[C@@H]1O | Saccharomyces bayanus | inactive

Kindly note the recorded inhibition for OC[C@H]1O[C@@H]2N=C(SCCCCCCCCCCCCCCCCI)O[C@@H]2[C@@H](O)[C@@H]1O , which is inactive

Kindly note the recorded inhibition for COC(=O)CCCCCCCCCCCCCCCSC1=N[C@H]2O[C@H](CO)[C@@H](O)[C@H](O)[C@H]2O1 , which is inactive
